- protocolText: Plasma free fraction of Compound A (spiked -10 min plasma samples)
- Format: in vitro ADME, cynomolgus non-human primates (Macaca fascicularis)
- runConditions: cynomolgus monkey, Subject 1, baseline, read-out: fp (%) Plasma free fraction
- Protocol: A dynamic 90 (Subject 1) or 120 (Subject 2) minute PET scan acquisition was initiated at the start of Compound A injection, administered over 3 minutes via an infusion pump targeting an injected activity of 5 mCi. Relative to time of Compound A injection, arterial blood samples were collected in K2EDTA at −10, 0.75, 1.5, 2.25, 3, 4, 5, 10, 15, 30, 45, 60, 90 and 120 min. For each sample, an aliquot (200 uL) was gamma counted for radioactivity concentration determination, then processed to plasma. […]
metricName: fraction unbound

1) [2H]C([2H])(c1cn[nH]c1)c1ccc(O[11CH3])c(-c2cccc([N+](=O)[O-])c2)n1    0.059

---

- protocolText: Plasma free fraction of Compound A (spiked -10 min plasma samples)
- Format: in vitro ADME, cynomolgus non-human primates (Macaca fascicularis)
- runConditions: cynomolgus monkey, Subject 2, baseline, read-out: fp (%) Plasma free fraction
metricName: fraction unbound

1) [2H]C([2H])(c1cn[nH]c1)c1ccc(O[11CH3])c(-c2cccc([N+](=O)[O-])c2)n1    0.067

Data origin: patent US11104660B2
